Molecular target: SNARE complex (VAMP, syntaxin and SNAP-25 bound to GST) (UniProt P60880)
Sequence (P60880 whole entry, one chain of several): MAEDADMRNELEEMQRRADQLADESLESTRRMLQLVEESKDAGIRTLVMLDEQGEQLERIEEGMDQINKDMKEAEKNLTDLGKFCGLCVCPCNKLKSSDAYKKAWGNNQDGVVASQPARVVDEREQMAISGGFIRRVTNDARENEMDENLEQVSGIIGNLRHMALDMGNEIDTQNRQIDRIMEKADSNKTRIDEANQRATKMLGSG
Assay: competition ELISA: VAMP on plate, SNAP-25-GST + syntaxin, anti-GST detection; compound at 2.5 mM
Non-standard residues stand in square brackets, D forms with d. *: point of attachment. Palmitoyl = CCCCCCCCCCCCCCCC(=O)*; Met(O) = CS(=O)CC[C@H](N)C(=O)O
experimental.endpoint: % inhibition formation SNARE complex (%)

Solved entries:
- binder: "Palmitoyl-EHLKQWM-NH2 [Palm-SEQ ID NO:1-NH2]"
  observed.measurement: 47
- binder: "Ac-DHFLDW[Met(O)]-NH2 [Ac-SEQ ID NO:56-NH2]"
  observed.measurement: 64
- binder: "Ac-DHLKKWM-NH2 [Ac-SEQ ID NO:22-NH2]"
  observed.measurement: 72
- binder: "Ac-NHFLNWM-NH2 [Ac-SEQ ID NO:15-NH2]"
  observed.measurement: 42
- binder: "Palmitoyl-EDLKRWM-NH2 [Palm-SEQ ID NO:14-NH2]"
  observed.measurement: 42
- binder: "Palmitoyl-NHFLNWM-NH2 [Palm-SEQ ID NO:15-NH2]"
  observed.measurement: 21

a. Ac-NHLKHWM-NH2 [Ac-SEQ ID NO:32-NH2]
b. Palmitoyl-QHLHNVM-NH2 [Palm-SEQ ID NO:3-NH2]
Kindly identify which of a and b has the larger recorded % inhibition formation SNARE complex value. API: response body contains the label of the selected item.
b
(b: 51%, a: 19%)
